Molecular target: OX1R (Mus musculus)
Sequence (P58307 1-416): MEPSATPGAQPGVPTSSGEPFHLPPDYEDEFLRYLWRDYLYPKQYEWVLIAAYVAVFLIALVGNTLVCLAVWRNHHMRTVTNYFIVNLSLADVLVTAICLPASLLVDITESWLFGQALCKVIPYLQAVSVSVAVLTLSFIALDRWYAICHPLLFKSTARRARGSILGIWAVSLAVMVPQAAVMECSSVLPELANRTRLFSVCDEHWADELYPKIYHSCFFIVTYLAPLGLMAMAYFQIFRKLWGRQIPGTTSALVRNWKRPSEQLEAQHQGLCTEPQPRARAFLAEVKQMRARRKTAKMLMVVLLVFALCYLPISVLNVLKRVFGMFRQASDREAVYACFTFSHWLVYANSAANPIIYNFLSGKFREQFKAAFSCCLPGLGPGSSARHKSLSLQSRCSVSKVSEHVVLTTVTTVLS
pKi: −log10 of the molar value.
Would you mind labelling by pKi? At or over 6 is met, under is not met.

| compound | class.name |
| --- | --- |
| COc1ccc(CNC(=O)c2cc(-c3cc(Cl)cc(Cl)c3)cnc2-c2cccnc2)cc1OC [2-SORA-18] | met |
| COc1ccc(CNC(=O)c2cc(-c3cncc(C)c3)ncc2-c2ccccc2)nc1OC [2-SORA-7] | not met |
| Cc1ccc(-c2ncccn2)c(C(=O)N2C[C@H](COc3ccc(F)cn3)CC[C@H]2C)c1 [MK-6096] | met |
| COc1ccc(CNC(=O)c2cc(-c3cncc(C)c3)ncc2-c2nccs2)nc1OC [MK-3697] | not met |

----------
Target: OX2R (Canis lupus familiaris, UniProt Q9TUP7)
Construct: expressed in transfected cells; host or cells: CHO-K1
Sequence (Q9TUP7 whole entry): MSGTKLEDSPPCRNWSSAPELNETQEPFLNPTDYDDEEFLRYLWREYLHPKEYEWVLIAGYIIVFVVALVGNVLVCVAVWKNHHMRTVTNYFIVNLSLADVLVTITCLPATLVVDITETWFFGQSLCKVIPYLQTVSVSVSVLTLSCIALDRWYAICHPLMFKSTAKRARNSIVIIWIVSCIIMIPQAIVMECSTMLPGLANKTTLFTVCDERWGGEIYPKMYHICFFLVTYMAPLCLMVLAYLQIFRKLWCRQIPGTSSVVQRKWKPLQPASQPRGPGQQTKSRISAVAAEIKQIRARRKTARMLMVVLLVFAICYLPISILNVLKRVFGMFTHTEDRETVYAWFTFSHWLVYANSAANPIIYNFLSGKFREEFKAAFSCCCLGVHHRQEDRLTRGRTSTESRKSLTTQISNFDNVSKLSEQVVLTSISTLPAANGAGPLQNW
Test: Inhibition of orexin-peptide-A-induced calcium mobilization in CHO cells, dog OX2R
Assay type: cell-based

| chemical.structure | assayed.target | Kb |
| --- | --- | --- |
| COc1ccc(CNC(=O)c2cc(-c3cc(Cl)cc(Cl)c3)cnc2-c2cccnc2)cc1OC | OX2R (Canis lupus familiaris, UniProt Q9TUP7) | 0.027 µM |
| COc1ccc(CNC(=O)c2cc(-c3cncc(C)c3)ncc2-c2nccs2)nc1OC | OX2R (Canis lupus familiaris, UniProt Q9TUP7) | 0.016 µM |
| COc1ccc(CNC(=O)c2cc(-c3cncc(Cl)c3)cnc2-c2ccccn2)nc1OC | OX2R (Canis lupus familiaris, UniProt Q9TUP7) | 0.011 µM |
| Cc1ccc(-c2ncccn2)c(C(=O)N2C[C@H](COc3ccc(F)cn3)CC[C@H]2C)c1 | OX2R (Canis lupus familiaris, UniProt Q9TUP7) | 0.01 µM |
| COc1ccc(CNC(=O)c2cc(-c3cncc(C)c3)ncc2-c2ccccc2)nc1OC | OX2R (Canis lupus familiaris, UniProt Q9TUP7) | 0.013 µM |

----------
Target: hOX1R (Homo sapiens, UniProt O43613)
Construct: expressed in transfected cells; host or cells: CHO-K1
Sequence (O43613 whole entry): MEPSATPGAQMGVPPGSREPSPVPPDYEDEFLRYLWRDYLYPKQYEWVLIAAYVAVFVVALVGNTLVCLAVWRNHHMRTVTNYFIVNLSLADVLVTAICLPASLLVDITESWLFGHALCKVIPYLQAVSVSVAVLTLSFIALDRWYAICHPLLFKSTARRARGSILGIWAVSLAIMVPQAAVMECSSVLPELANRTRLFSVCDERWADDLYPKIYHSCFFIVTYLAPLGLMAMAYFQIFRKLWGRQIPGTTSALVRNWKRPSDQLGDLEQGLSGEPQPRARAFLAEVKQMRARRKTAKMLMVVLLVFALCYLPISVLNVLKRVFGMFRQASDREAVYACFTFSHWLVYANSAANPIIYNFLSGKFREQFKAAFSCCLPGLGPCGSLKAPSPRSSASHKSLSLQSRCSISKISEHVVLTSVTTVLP
Assay: Inhibition of orexin-peptide-A-induced calcium mobilization in CHO cells, human OX1R
Assay type: cell-based

| chemical.structure | Kb |
| --- | --- |
| COc1ccc(CNC(=O)c2cc(-c3cncc(C)c3)ncc2-c2ccccc2)nc1OC | 4360 nM |
| Cc1ccc(-c2ncccn2)c(C(=O)N2C[C@H](COc3ccc(F)cn3)CC[C@H]2C)c1 | 11 nM |
| COc1ccc(CNC(=O)c2cc(-c3cc(Cl)cc(Cl)c3)cnc2-c2cccnc2)cc1OC | 161 nM |
| COc1ccc(CNC(=O)c2cc(-c3cncc(Cl)c3)cnc2-c2ccccn2)nc1OC | 1870 nM |

Data provenance is paper PMC4891657.
